molecular target: MICA*004 on HCC1534 cells (human, UniProt Q29983 24-383); assay: cell-based or functional assay
value_type: % max inhibition of shedding (%)
Your answer is read as %, so omit the unit and give the number.

// worked examples, % max inhibition of shedding included
>  <binder>
6F8.7 (antibody, V domains shown, Mouse hybridoma antibody; constant regions differ by assay) VH: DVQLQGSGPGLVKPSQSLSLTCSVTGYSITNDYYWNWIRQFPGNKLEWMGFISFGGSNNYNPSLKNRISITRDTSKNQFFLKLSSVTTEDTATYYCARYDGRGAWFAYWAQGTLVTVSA VL: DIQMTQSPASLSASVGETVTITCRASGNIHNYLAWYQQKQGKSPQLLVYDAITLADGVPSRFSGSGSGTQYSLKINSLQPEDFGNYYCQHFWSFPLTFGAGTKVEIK

>  <% max inhibition of shedding / %>
70

$$$$
>  <binder>
3C9.10 (antibody, V domains shown, Mouse hybridoma antibody; constant regions differ by assay (hybridoma mouse IgG, recombinant human IgG1 or mouse IgG2a)) VH: QVQLKESGPGLVAPSQSLSITCTVSGFSLTGSGVNWVRQPPGKGLEWLGMIWGDGNTDYNSALKSRLSISKDNSKSQIFLKMNSLQTDDTARYYCARGAYYGKRWYFDVWGAGTTVTVSS VL: DIQMTQTTSSLSASLGDRVTISCSASQGISNYLNWYQQKPDGTVKLLIYYTSSLHSGVPSRFSGSGSGTDYSLTISNLEPEDIATYYCQQYSKLPPTFGGGTKVEIK

>  <% max inhibition of shedding / %>
24

$$$$
>  <binder>
3E11 (antibody, V domains shown, Mouse hybridoma antibody; constant regions differ by assay) VH: EIQLQQSGPELVKPGASVKVSCTASGYAFTKYNIYWVKQSHGKSLEWIGYIDPYTGGTISNQKFTGRATLTVDKSSSTAYLHLNSLTSEDSAVYYCARPGSYWYFGVWGAGTTVTVSS VL: DILMTQTPLSLPVSLGDQASISCRSSQSIVYTNGNTNLEWYLQKPGQSPKLLIYKVSNRFSGVPDRFSGSGSGTDFTLKISRVEAEDLGVYYCFQASYVPFTFGSGTKVEIK

>  <% max inhibition of shedding / %>
55

$$$$
>  <binder>
13A9 (antibody, V domains shown, Mouse variable domains; constant regions differ by assay) VH: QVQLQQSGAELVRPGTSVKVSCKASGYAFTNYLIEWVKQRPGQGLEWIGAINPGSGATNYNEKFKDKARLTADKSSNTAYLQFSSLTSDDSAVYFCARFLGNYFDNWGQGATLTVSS VL: DIQMTQSPASLSASVGETVTITCRASGNIHSYLAWYQQKQGKSPQLLVYYAETLADGVPSRFSGRGSGTQYSLKINSLQPEDFGSYFCQQFWTTPYTFGGGTKVEIK

>  <% max inhibition of shedding / %>
66

$$$$
>  <binder>
6E12.5 (antibody, V domains shown, Mouse hybridoma antibody; constant regions differ by assay) VH: EVQLVESGGGLVKPGGSLKLSCAASGFTFSDYYMYWVRQTPEKRLEWVATISDGITYTYYSDSVRGRFTISRDNAENTLYLQMSSLKSEDTAMYYCSKGGGSTARGALDFWGQGTSVTVSS VL: DIQMNQSPSSLSASLGDTITITCHASQNIHVWLSWYQQKPGNIPKLLIYGASHLHTGVPSRFSGRGSGTGFTLTISSLQPEDIATYYCLQGQSYPLTFGSGTKVEIK

>  <% max inhibition of shedding / %>
37

$$$$

Task: Endpoint output: % max inhibition of shedding of 12H10 (antibody, V domains shown, Mouse variable domains; constant regions differ by assay) VH: DVQLQESGPGLVKPSQPLSLTCTVTGYSITSNYAWNWIRQFPGDKLEWMGYISSSGITKSNPSLKSRISITRDTSKNQFFLQLNSLTTEDTATYYCSRWSNWSFDVWGAGTTVTVSS VL: DIQMTQTPSSLSVSLGDRVTINCRASQDIHNYFNWYQQKPDGTIKLLIYYTSRFHSGVPSRFSGSGSGTDYSLTISNLEEEDIATYFCQQGNSLPPTFGGGTKLEIK . Value?
Output: 76

Task: So what's the measured % max inhibition of shedding for this one? 20G11 (antibody, V domains shown, Mouse hybridoma antibody; constant regions differ by assay) VH: DVQLVESGGGLVQPGGSRKLSCAASGFTFSTFGIHWVRQAPEKGLEWVAYISYDSRTIYYADTVKGRFTISRDNPKNTLFLQMTSLRSEDTAMYYCARWAYEGGVNYFDNWGQGTTLTVSS VL: QIVLTQSPAIMSASLGERVTMTCTATSGVSSSYLHWYQQKPGSSPKLWIYSSSNLASGVPARFSGSGSGTSYSLTIGSMEAEDAATYYCHQFHRSPLTFGTGTKVEIK
Output: 69
